Quick reference: kon of the listed items.
# system.name: T1, cTnI quality control product recombinant protein (human, UniProt P19429 1-210, limits assumed)
# T1 construct: the assay paragraphs only say cTnI; also called cardiac troponin I; cTnI antigen
# assay.details: AMC biosensor, antibody on sensor

Past entries and their recorded results:
binder	kon
Mutation 1-44 (antibody, V domains shown) VH: QVQLQQSGTELAKPGASVKFSCKASGYTFSTYWMYWIKQRPGQGLEWIGYINPSSGHTDYNQRFKDKATLTADKSSSTAYMQLNSLTSEDSAVYYCARKYYGPFGMDYWGQGTSVTVSS VL: EIFLTQSPAIMSASPGEKVTMTCSASSSVSYVHWYQQKSGTSPKRWIYDTSKIASGIPVRFSGSGSGTSYSLTISSMEAEDAATYYCQQWSTNPYTFGGGTKLEIKR	16500 M⁻¹ s⁻¹
Mutation 1-21 (antibody, V domains shown) VH: QVQLQQSGTELAKPGASVKFSCKASGYTFSSYWMYWIKQRPGQGLEWIGYLNPSTGHTDYNQRFKDKATLTADKSSSTAYMQLNSLTSEDSAVYYCARKYFGPFGMDYWGQGTSVTVSS VL: EIFLTQSPAIMSASPGEKVTMTCSASTSVSYVHWYQQKSGTSPKRWIYDTSKIASGIPVRFSGSGSGTSYSLTISSMEAEDAATYYCQQWSSQPYTFGGGTKLEIKR	26100 M⁻¹ s⁻¹

Moving on to the next binder.
Problem: Output kon of WT 1-2 (antibody, V domains shown) VH: QVQLQQSGTELAKPGASVKFSCKASDYTFTSYWMYWIKQRPGQGLEWIGYINPSSGHTEYNQRFKDKATLTADKSSSTAYMQLNSLTSEDSAVYYCARRYWGPFAMDYWGQGTSVTVSS VL: EIFLTQSPAIMSASPGEKVTMTCSASSTVSYAHWYQQKSGTSPKRWLYDSSKLASGIPVRFSGSGSGTSYSLTISSMEAEDAATYYCQNWSSQPYTFGGGTKLEIKR
Result: 26000 M⁻¹ s⁻¹
